All values here come from patent US20240132578A1.

# experimental system: HIV-1 Env of isolate MGRM-G-009 (subtype G), on pseudovirus (HIV-1)
# test details: cell-based or functional assay
readout kind: IC50 (µg/mL), neutralization of pseudovirus

# query: IC50 (µg/mL), neutralization of pseudovirus of entry PGT-130 (antibody, V domains shown) VH: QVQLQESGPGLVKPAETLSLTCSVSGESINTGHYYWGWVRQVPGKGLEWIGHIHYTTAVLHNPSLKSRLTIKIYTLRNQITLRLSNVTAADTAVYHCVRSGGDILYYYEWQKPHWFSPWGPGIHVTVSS VL: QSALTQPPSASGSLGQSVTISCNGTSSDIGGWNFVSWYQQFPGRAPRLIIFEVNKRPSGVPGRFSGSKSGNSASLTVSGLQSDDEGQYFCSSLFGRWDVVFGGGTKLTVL
> 50 µg/mL

# query: IC50 (µg/mL), neutralization of pseudovirus of entry PGT-123 (antibody, V domains shown) VH: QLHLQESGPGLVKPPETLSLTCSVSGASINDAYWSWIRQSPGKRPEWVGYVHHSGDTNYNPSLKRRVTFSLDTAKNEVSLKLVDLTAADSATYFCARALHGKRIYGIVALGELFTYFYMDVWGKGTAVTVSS VL: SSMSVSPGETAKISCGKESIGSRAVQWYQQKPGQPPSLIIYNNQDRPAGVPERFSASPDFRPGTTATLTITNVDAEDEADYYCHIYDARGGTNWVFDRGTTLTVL
33.5 µg/mL

# query: IC50 (µg/mL), neutralization of pseudovirus of entry PGT-126 (antibody, V domains shown) VH: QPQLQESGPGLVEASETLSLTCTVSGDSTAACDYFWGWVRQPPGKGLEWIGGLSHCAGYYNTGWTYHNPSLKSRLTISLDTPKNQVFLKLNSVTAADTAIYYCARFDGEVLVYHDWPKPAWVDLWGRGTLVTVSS VL: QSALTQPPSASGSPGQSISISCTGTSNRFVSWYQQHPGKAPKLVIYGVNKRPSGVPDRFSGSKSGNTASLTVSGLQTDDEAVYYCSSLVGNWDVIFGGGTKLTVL
> 50 µg/mL

# query: IC50 (µg/mL), neutralization of pseudovirus of entry PGT-137 (antibody, V domains shown) VH: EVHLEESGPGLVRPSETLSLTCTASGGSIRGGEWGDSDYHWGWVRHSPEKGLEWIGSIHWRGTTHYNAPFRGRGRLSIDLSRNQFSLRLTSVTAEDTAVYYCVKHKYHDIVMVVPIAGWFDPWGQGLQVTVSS VL: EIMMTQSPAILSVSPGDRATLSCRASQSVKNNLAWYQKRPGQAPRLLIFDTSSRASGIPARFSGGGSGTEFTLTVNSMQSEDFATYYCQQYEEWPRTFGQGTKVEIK
> 50 µg/mL

# query: IC50 (µg/mL), neutralization of pseudovirus of entry PGT-125 (antibody, V domains shown) VH: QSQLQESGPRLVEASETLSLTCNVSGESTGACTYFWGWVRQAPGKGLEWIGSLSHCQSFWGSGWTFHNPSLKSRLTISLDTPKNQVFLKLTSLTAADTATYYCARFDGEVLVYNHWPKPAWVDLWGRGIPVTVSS VL: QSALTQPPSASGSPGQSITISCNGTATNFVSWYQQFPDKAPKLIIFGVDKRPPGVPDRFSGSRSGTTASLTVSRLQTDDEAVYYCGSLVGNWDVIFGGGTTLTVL
> 50 µg/mL

# query: IC50 (µg/mL), neutralization of pseudovirus of entry PGT-128 (antibody, V domains shown) VH: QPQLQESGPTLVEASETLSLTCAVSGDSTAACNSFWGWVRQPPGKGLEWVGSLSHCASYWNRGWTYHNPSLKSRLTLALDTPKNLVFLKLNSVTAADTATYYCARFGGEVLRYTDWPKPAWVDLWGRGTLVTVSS VL: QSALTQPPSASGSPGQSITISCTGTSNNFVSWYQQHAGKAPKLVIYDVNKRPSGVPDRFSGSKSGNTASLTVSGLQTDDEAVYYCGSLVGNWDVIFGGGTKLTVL
> 50 µg/mL

# query: IC50 (µg/mL), neutralization of pseudovirus of entry PGT-136 (antibody, V domains shown) VH: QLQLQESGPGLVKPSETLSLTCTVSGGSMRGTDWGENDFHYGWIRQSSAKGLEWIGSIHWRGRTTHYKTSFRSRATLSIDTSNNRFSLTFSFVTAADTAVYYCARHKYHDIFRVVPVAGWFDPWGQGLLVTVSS VL: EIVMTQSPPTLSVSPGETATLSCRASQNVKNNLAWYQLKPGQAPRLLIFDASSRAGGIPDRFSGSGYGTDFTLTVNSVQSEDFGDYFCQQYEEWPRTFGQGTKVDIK
> 50 µg/mL
